This listing pairs compounds with measured lowest phenotypically active concentration.
Tested on: A549-GM130-SQSTM1
Assay: lowest phenotypically active concentration; higher = less potent
Conditions: treatment time: 24 h
Structures can show the parent of a compound that is named as a salt.
reported.metric: lowest phenotypically active concentration (µM)

{"columns": ["compound", "lt.gt.eq", "value.reported"],
 "data": [
  ["CC(C)(C)c1ccc(C(O)CCCN2CCC(C(O)(c3ccccc3)c3ccccc3)CC2)cc1 (centres undefined)", "=", 3],
  ["CC(C)n1nc(-c2cc3cc(O)ccc3[nH]2)c2c(N)ncnc21", "=", 1],
  ["CNCCCN1c2ccccc2CCc2ccccc21", "=", 3],
  ["COc1cc2c(NC3CCN(C(C)C)CC3)nc(N3CCC(F)(F)CC3)nc2cc1OCCCN1CCCC1", "≤", 0.3],
  ["COc1cc(OC2CCN(C)CC2)ccc1Nc1ncc2c(n1)n(C1CCCC1)c(=O)n2C", "=", 3],
  ["CCCCCCCCCCCCC/C=C/[C@H](O)[C@H](N)CO [D-erythro-Sphingosine (synthetic)]", "=", 9],
  ["CN1CCN(C(=O)CN[C@H]2C[C@@H]2c2ccc(OCc3ccccc3)cc2)CC1 [RN 1 dihydrochloride]", "=", 9],
  ["CC(C)(C(=O)c1cccnc1)c1cccnc1", "=", 9],
  ["O=C(NCCN1CCC(n2c(=O)[nH]c3ccccc32)CC1)c1cc2cc(F)ccc2[nH]1", "=", 9]
]}

* * *

Recorded lowest phenotypically active concentration, one value per entry.
Test system: A549-TUBA1B-RELA
Test: lowest phenotypically active concentration; higher = less potent
Details: treatment time: 24 h
Structures can show the parent of a compound that is named as a salt.
reported.metric: lowest phenotypically active concentration

{"columns": ["molecule", "value.reported"],
 "data": [
  ["COc1cc(N2CCN(C)CC2)ccc1Nc1nccc(-c2cn(C)c3cnccc23)n1", "1 µM"],
  ["CO[C@H]1C=CC=C(C)C(=O)NC2=CC(=O)C(NCCN(C)C)=C(C[C@@H](C)C[C@H](OC)[C@H](O)[C@@H](C)C=C(C)[C@@H]1OC(N)=O)C2=O [17-DMAG hydrochloride]", "≤ 0.3 µM"],
  ["Nc1ccn([C@@H]2O[C@H](CO)[C@@H](O)[C@@H]2O)c(=O)n1", "≤ 0.3 µM"],
  ["CC(C)(C)c1cc(C(=O)/C=C/c2ccc(C(=O)O)cc2)cc(C(C)(C)C)c1", "1 µM"],
  ["Cc1ccc(Nc2nccc(N(C)c3ccc4c(C)n(C)nc4c3)n2)cc1S(N)(=O)=O", "3 µM"],
  ["CC1(CN2CCC(n3c(=O)[nH]c4ccccc43)CC2)OCc2ccccc2-n2cccc21 (centres undefined)", "9 µM"],
  ["Nc1ccc(-c2ccc3ncc4ccc(=O)n(-c5cccc(C(F)(F)F)c5)c4c3c2)cn1", "≤ 0.3 µM"],
  ["CC(C)n1nc(-c2cc3cc(O)ccc3[nH]2)c2c(N)ncnc21", "1 µM"],
  ["COc1ccc(-n2c(SCCCN3C(=O)c4cccc5cccc(c45)C3=O)nnc2-c2ccncc2)cc1", "3 µM"],
  ["COc1ccc(Cl)cc1NC(=O)Nc1cc(C)nc2ccccc12", "3 µM"],
  ["CN1CC[C@H](c2c(O)cc(O)c3c(=O)cc(-c4ccccc4Cl)oc23)[C@H](O)C1 [Flavopiridol hydrochloride]", "≤ 0.3 µM"],
  ["Nc1ncnc2c1nc(Cl)n2C1O[C@H](CO)[C@@H](O)[C@H]1O (some centres undefined)", "1 µM"],
  ["O=C(NCCCNc1nc(Nc2cccc(NC(=O)N3CCCC3)c2)ncc1I)c1cccs1", "3 µM"],
  ["CCCCCCCCCCNCCSSCc1ccc(Cl)cc1", "3 µM"],
  ["O=S(=O)(c1cccc2cnccc12)N1CCNCC1", "9 µM"],
  ["Nc1ncnc2c1c(-c1ccc(Oc3ccccc3)cc1)nn2C1CCCC1", "3 µM"],
  ["CN1c2ccc([N+](=O)[O-])cc2N=C(c2ccc(C(=O)O)cc2)c2cc3c(cc21)C(C)(C)CCC3(C)C", "9 µM"],
  ["CN(C)c1ccc(C(=O)NCCCCCCC(=O)NO)cc1", "≤ 0.3 µM"],
  ["Cc1noc(C)c1-c1ccc2c(c1)nc(CCc1ccc(OCCCN(C)C)cc1)n2CCN1CCOCC1", "3 µM"]
]}
